targetOfAssay: human H3 receptor (Homo sapiens, UniProt Q9Y5N1)
Sequence (Q9Y5N1 whole entry): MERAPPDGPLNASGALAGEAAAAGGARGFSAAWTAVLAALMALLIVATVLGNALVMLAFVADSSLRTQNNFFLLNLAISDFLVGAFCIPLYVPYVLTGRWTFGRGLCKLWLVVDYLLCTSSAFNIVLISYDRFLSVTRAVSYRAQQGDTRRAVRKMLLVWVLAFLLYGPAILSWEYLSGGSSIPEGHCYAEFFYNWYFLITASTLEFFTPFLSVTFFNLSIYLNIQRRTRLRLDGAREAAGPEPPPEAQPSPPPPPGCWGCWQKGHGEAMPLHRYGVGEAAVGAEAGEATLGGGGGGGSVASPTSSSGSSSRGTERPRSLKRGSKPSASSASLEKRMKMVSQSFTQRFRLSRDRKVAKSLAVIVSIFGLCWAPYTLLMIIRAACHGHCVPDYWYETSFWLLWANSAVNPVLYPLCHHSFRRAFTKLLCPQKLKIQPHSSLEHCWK
testDetails: [35S]GTP-γ-S binding test
measureName: IC50 (nM)

>  <smilesString>
C[C@@H]1CCCN1CCCOc1ccc(-n2cc(N3CCCC3=O)cn2)cc1

>  <unitSpec>
nM

>  <numericValue>
1.7

$$$$

====

targetOfAssay: human H3 receptor (Homo sapiens, UniProt Q9Y5N1)
testDetails: H3 receptor binding test (R(−)-α-methyl[3H]histamine)
Design: purchased Euroscreen ES-392-M; host or cells: CHO-K1
conditionContext: inhibition of R(−)-α-methyl[3H]histamine (2 nM) binding, membrane of human H3 receptor-expressing CHO-K1 cells
Please assign a class to every record based on measured IC50, with ranges low bracket = under 5 nM, middle bracket = from 5 nM up to 9 nM, high bracket = 9 nM and over

>  <compound>
CCN(CC)CCCOc1ccc(-n2cc(C(=O)NC(C)(C)C)cn2)cc1

>  <targetOfAssay>
human H3 receptor (Homo sapiens, UniProt Q9Y5N1)

>  <className>
high bracket

$$$$
>  <compound>
CC1(C)CCCN1CCCOc1ccc(-n2cc(C(=O)N3CCOCC3)cn2)cc1

>  <targetOfAssay>
human H3 receptor (Homo sapiens, UniProt Q9Y5N1)

>  <className>
high bracket

$$$$
>  <compound>
CC1CCCN1CCCOc1ccc(-n2cc(N3CCCCC3=O)cn2)cc1 (stereo not shown)

>  <targetOfAssay>
human H3 receptor (Homo sapiens, UniProt Q9Y5N1)

>  <className>
low bracket

$$$$
>  <compound>
C[C@@H]1CCCN1CCCOc1ccc(-n2cc(NS(=O)(=O)c3cccnc3)cn2)cc1

>  <targetOfAssay>
human H3 receptor (Homo sapiens, UniProt Q9Y5N1)

>  <className>
high bracket

$$$$
>  <compound>
CCOC(=O)c1cnn(-c2ccc(OCCCN3CCC[C@H]3C)cc2)c1

>  <targetOfAssay>
human H3 receptor (Homo sapiens, UniProt Q9Y5N1)

>  <className>
high bracket

$$$$
>  <compound>
CC1CCCN1CCCOc1ccc(-n2cc(NS(=O)(=O)c3ccc(C#N)cc3)cn2)cc1 (stereo not shown)

>  <targetOfAssay>
human H3 receptor (Homo sapiens, UniProt Q9Y5N1)

>  <className>
high bracket

$$$$
>  <compound>
CC1CCCN1CCCOc1ccc(-n2cc(C(=O)Nc3ccc(F)cc3)cn2)cc1 (stereo not shown)

>  <targetOfAssay>
human H3 receptor (Homo sapiens, UniProt Q9Y5N1)

>  <className>
low bracket

$$$$
>  <compound>
CC1CCC(C)N1CCCOc1ccc(-n2cc(C(=O)NC(C)(C)C)cn2)cc1 (stereo not shown)

>  <targetOfAssay>
human H3 receptor (Homo sapiens, UniProt Q9Y5N1)

>  <className>
high bracket

$$$$
>  <compound>
CCN(C(C)=O)c1cnn(-c2ccc(OCCCN3CCCC3C)cc2)c1 (stereo not shown)

>  <targetOfAssay>
human H3 receptor (Homo sapiens, UniProt Q9Y5N1)

>  <className>
low bracket

$$$$
>  <compound>
C[C@@H]1CCCN1CCCOc1ccc(-n2cc(C(=O)N3CCCOCC3)cn2)cc1

>  <targetOfAssay>
human H3 receptor (Homo sapiens, UniProt Q9Y5N1)

>  <className>
low bracket

$$$$
>  <compound>
COc1ccc(C(=O)Nc2cnn(-c3ccc(OCCCN4CCCC4C)cc3)c2)cc1 (stereo not shown)

>  <targetOfAssay>
human H3 receptor (Homo sapiens, UniProt Q9Y5N1)

>  <className>
low bracket

$$$$
>  <compound>
Cc1ccc(NC(=O)c2cnn(-c3ccc(OCCCN4CCCC4C)cc3)c2)cc1 (stereo not shown)

>  <targetOfAssay>
human H3 receptor (Homo sapiens, UniProt Q9Y5N1)

>  <className>
low bracket

$$$$
>  <compound>
O=C1CCCN1c1cnn(-c2ccc(OCCCN3CCCC3)cc2)c1

>  <targetOfAssay>
human H3 receptor (Homo sapiens, UniProt Q9Y5N1)

>  <className>
middle bracket

$$$$
>  <compound>
Cc1cc(OCCCN2CCC[C@H]2C)ccc1-n1cc(C(=O)N2CCOCC2)cn1

>  <targetOfAssay>
human H3 receptor (Homo sapiens, UniProt Q9Y5N1)

>  <className>
high bracket

$$$$
>  <compound>
C[C@@H]1CCCN1CCCOc1ccc(-n2cc(NC(=O)c3ccc(O)cc3)cn2)cc1

>  <targetOfAssay>
human H3 receptor (Homo sapiens, UniProt Q9Y5N1)

>  <className>
low bracket

$$$$
>  <compound>
CC1CCCN1CCCOc1ccc(-n2cc(C(=O)N3CCC3)cn2)cc1 (stereo not shown)

>  <targetOfAssay>
human H3 receptor (Homo sapiens, UniProt Q9Y5N1)

>  <className>
middle bracket

$$$$
>  <compound>
C[C@@H]1CCCN1CCCOc1ccc(-n2cc(N(C)S(C)(=O)=O)cn2)cc1

>  <targetOfAssay>
human H3 receptor (Homo sapiens, UniProt Q9Y5N1)

>  <className>
low bracket

$$$$
>  <compound>
O=C(Nc1ccc(F)cc1)c1cnn(-c2ccc(OCCCN3CCCC3)cc2)c1

>  <targetOfAssay>
human H3 receptor (Homo sapiens, UniProt Q9Y5N1)

>  <className>
middle bracket

$$$$
>  <compound>
C[C@@H]1CCCN1CCCOc1ccc(-n2cc(C(=O)N3CCN(C)CC3)cn2)cc1

>  <targetOfAssay>
human H3 receptor (Homo sapiens, UniProt Q9Y5N1)

>  <className>
middle bracket

$$$$
>  <compound>
O=C(c1cnn(-c2ccc(OCCCN3CCCC3(F)F)cc2)c1)N1CCOCC1

>  <targetOfAssay>
human H3 receptor (Homo sapiens, UniProt Q9Y5N1)

>  <className>
high bracket

$$$$
>  <compound>
C[C@@H]1CCCN1CCCOc1ccc(-n2cc(C(=O)N3CCOCC3)cn2)cc1F

>  <targetOfAssay>
human H3 receptor (Homo sapiens, UniProt Q9Y5N1)

>  <className>
middle bracket

$$$$
>  <compound>
C[C@@H]1CCCN1CCCOc1ccc(-n2cc(C(=O)N(CCO)CC(=O)O)cn2)cc1

>  <targetOfAssay>
human H3 receptor (Homo sapiens, UniProt Q9Y5N1)

>  <className>
high bracket

$$$$
>  <compound>
C[C@@H]1CCCN1CCCOc1ccc(-n2cc(C(=O)N3CCOC(O)C3)cn2)cc1 (stereo partly shown)

>  <targetOfAssay>
human H3 receptor (Homo sapiens, UniProt Q9Y5N1)

>  <className>
middle bracket

$$$$
>  <compound>
CC1CCCN1CCCOc1ccc(-n2cc(C(=O)NCc3ccc(F)cc3)cn2)cc1 (stereo not shown)

>  <targetOfAssay>
human H3 receptor (Homo sapiens, UniProt Q9Y5N1)

>  <className>
low bracket

$$$$
>  <compound>
C[C@@H]1CCCN1CCCOc1ccc(-n2cc(C(N)=O)cn2)cc1

>  <targetOfAssay>
human H3 receptor (Homo sapiens, UniProt Q9Y5N1)

>  <className>
middle bracket

$$$$
>  <compound>
C[C@@H]1CCCN1CCCOc1ccc(-n2cc(C(=O)N(CCO)CCO)cn2)cc1

>  <targetOfAssay>
human H3 receptor (Homo sapiens, UniProt Q9Y5N1)

>  <className>
middle bracket

$$$$
